- System: MCF7
- protocol notes: Cytotoxicity against human MCF7 cells after 96 hrs
- reported conditions: MCF7, 96 h
Listed below: pIC50 values for each entry.
Units for pIC50: none; it is -log10 of a concentration expressed in mol/L.

INSERT INTO assay_data (chemical_structure, value_observed) VALUES
  ('CC(C)(C)c1ccc(C#Cc2cn([C@H]3C[C@H](O)[C@@H](CO)O3)c(=O)[nH]c2=O)cc1', 5.02);

Reported pIC50 of CCCCCc1ccc(C#Cc2cn([C@H]3C[C@H](O)[C@@H](CO)O3)c(=O)[nH]c2=O)cc1 : 4.43

Reported pIC50 of C#Cc1cn([C@H]2C[C@H](O)[C@@H](CO)O2)c(=O)[nH]c1=O : 6.40

Reported pIC50 of C[Si](C)(C)C#Cc1cn([C@H]2C[C@H](O)[C@@H](CO)O2)c(=O)[nH]c1=O : 5.80

###

- System: MCF7
- protocol notes: Cytotoxicity against human MCF7 cells after 96 hrs
- reported conditions: MCF7, 96 h
measure: IC50

Check out these entries, answers already filled in.
INSERT INTO assay_data (chemical_structure, value_observed) VALUES
  ('O=c1[nH]c(=O)n([C@H]2C[C@H](O)[C@@H](CO)O2)cc1C#CC1(O)CCCCC1', '> 50 µM'),
  ('O=c1[nH]c(=O)n([C@H]2C[C@H](O)[C@@H](CO)O2)cc1C#CC1CC1', '> 50 µM');

Next molecule, IC50 to be filled in.
Record CCCC#Cc1cn([C@H]2C[C@H](O)[C@@H](CO)O2)c(=O)[nH]c1=O has MCF7 IC50 equal to > 50 µM
